Protocol Text: Singlet oxygen quantum yield by DPBF decay curve method
Format: physicochemical
Condition Details: in dichloromethane, methylene blue as standard, 660 nm irradiation
API: label(entry) gives Satisfied if the entry's ΦΔ, singlet oxygen quantum yield is strictly smaller than 0.2; on equality or larger values it gives Not satisfied.

Illustrative cases are given below, each with its answer.
Compound	Label Value
CCN1/C(=C/C=C2\C=C(C=O)C=C(/C=C/c3sc4ccccc4[n+]3CC)C2=O)Sc2ccccc21	Not satisfied
CCOC(=O)C1=C/C(=C\C=C2/Sc3ccccc3N2CC)C(=O)C(/C=C/c2sc3ccccc3[n+]2CC)=C1	Not satisfied
CCN1/C(=C/C=C2\C=C(c3ccccc3)C=C(/C=C/c3sc4ccccc4[n+]3CC)C2=O)Sc2ccccc21	Not satisfied
CCN1/C(=C/C=C2\C=C(C)C=C(/C=C/c3sc4ccccc4[n+]3CC)C2=O)Sc2ccccc21	Not satisfied

Continue with the compound presented below.
Query: Hello, I'm reviewing records and need to know if ΦΔ, singlet oxygen quantum yield of CCN1/C(=C/C=C/C=C/C=C/c2sc3ccccc3[n+]2CC)Sc2ccccc21 [TCy7, reference compound] is below 0.2. Could you check?
Result: Satisfied
